For each entry below, report its protein stability index value.
B1: SNX8 (parent)
chain: VVLKLFLSFSGSDVQNKLKESAQC

- Variants of: B1
- Assay Summary: protein stability index of a GFP-peptide fusion (GPS, HEK-293T) (PSI 1-6); higher = more stable;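 note: lentivirally expressed fusions sorted by FACS into six bins by GFP to DsRed ratio, PSI derived from sequencing read proportions per bin multiplied by bin number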
- Condition: c terminus: a fixed tail appended
Numbers only.

> print(dat)
   mutant  numeric.value
1    E20A           2.89
2     S8R           1.92
3     F6K           3.48
4    C24V           2.91
5    N16H           1.75

The following variants each have a reported value; give each one's protein stability index.
1. G11E
2. A22C
3. S10Y
4. Q15T
5. L5A
6. Q15N

3.17
2.05
2.26
3.35
2.93
2.9

Source listed as the supplement of paper PMC10567573.
